test-method-notes: Human HepG2 cell viability assay in 384 well format
Format: toxicity, cell-based
Parameters: dose 125 nL, time 70.5 hour; concentration not given beside the values
test-conditions: HepG2 cells, read-out: Inhibition

{"compound": "COCc1nc(N(C)C)ncc1C(=O)OC", "readout-units": "%", "cytotoxicity at 70.5 h": -4.46}
{"compound": "c1cnnc(N2CCCC(NCc3cccc4c3OCCCO4)C2)c1 (configuration not stated)", "readout-units": "%", "cytotoxicity at 70.5 h": 0.746}
{"compound": "CCCC1CCCN(C(=O)Nc2cccnc2OC)CC1 (configuration not stated)", "readout-units": "%", "cytotoxicity at 70.5 h": 19.4}
{"compound": "COc1cc(C(=O)O)ccc1OCC(=O)NCCc1ccccc1", "readout-units": "%", "cytotoxicity at 70.5 h": -2.71}
{"compound": "CCc1nc(CN2CCCC(N(C)CCn3cncn3)C2)no1 (configuration not stated)", "readout-units": "%", "cytotoxicity at 70.5 h": -9.76}
{"compound": "O=C(NCc1ccc2c(c1)OCO2)Nc1cccnc1N1CCCC1", "readout-units": "%", "cytotoxicity at 70.5 h": -2.2}
{"compound": "CC(=O)N1CCc2c(nc(-c3ccncc3)nc2N(C)CC(O)CO)C1 (configuration not stated)", "readout-units": "%", "cytotoxicity at 70.5 h": -9.59}
{"compound": "CCC1(CC)Cc2ccccc2-c2nc(NCCO)[nH]c(=O)c21", "readout-units": "%", "cytotoxicity at 70.5 h": -1.26}
{"compound": "O=C1CN(CC2CC2)Cc2nc(NCCc3ccccn3)sc21", "readout-units": "%", "cytotoxicity at 70.5 h": 26.4}
{"compound": "Cc1nc(NCCc2ccccc2)cc(C(=O)N2CCOCC2)n1", "readout-units": "%", "cytotoxicity at 70.5 h": 5.2}
{"compound": "O=S(=O)(NC1CCN(CC(F)(F)F)C1)c1cc(F)cc(F)c1 (configuration not stated)", "readout-units": "%", "cytotoxicity at 70.5 h": 12.7}
{"compound": "O=C(O)c1ccccc1C1CCN(C2CCN(c3ccccc3)CC2)C1 (configuration not stated)", "readout-units": "%", "cytotoxicity at 70.5 h": 0.408}

Data provenance: ChEMBL document CHEMBL3507680
